Where do the numbers come from? From ChEMBL document CHEMBL1201862.

System: EKVX
Assay: NCI tumour cell line growth inhibition, 48 h
Calls of active or inactive are those of the source. No stated cut-off is given here; in the data, active = GI50 up to about 1.1 µM and inactive = higher.
Give measured GI50 for each item. Keep answers brief.

Before answering, review these 6 worked examples.
O=C(C=P(c1ccccc1)(c1ccccc1)c1ccccc1)c1ccc(-c2cccc([N+](=O)[O-])c2)cc1 :: 2.69 µM (inactive)
C/C(=N\NC(N)=O)C(CN1CCCCC1)C(c1ccccc1)c1c(O)c2ccccc2oc1=O (centres undefined) :: > 100 µM (inactive)
CNC(=O)/C(=C/c1ccc(OC)cc1)c1cc(OC)c(OC)c(OC)c1 :: 10.1 µM (inactive)
NC(=O)c1ncn(C2OC(CO)C(O)C2O)c1NC(=S)NC(=O)c1ccccc1 (centres undefined) :: > 100 µM (inactive)
Cc1c2ccccc2nc2[nH]c3ccncc3c12 :: 13.9 µM (inactive)
CCOC(=O)CCc1cn2cc(Br)nc(OC)c2n1 :: > 100 µM (inactive)

Go through the list and state GI50 for each entry.
1. Cc1cc(N(CCC#N)CCC#N)ccc1/C=C(\NC(=O)/C=C/c1ccccc1)NC(=O)Nc1ccccc1C
2. COc1ccc(-c2cc(Cc3cccs3)c(=O)[nH]n2)cc1
3. CC(=O)O[C@H]1C(=O)[C@@]2(C)[C@H]([C@H](OC(=O)c3ccc([N+](=O)[O-])cc3)[C@]3(O)C[C@H](OC(=O)[C@H](O)[C@@H](NC(=O)c4ccccc4)c4ccccc4)C(C)=C1C3(C)C)[C@]1(OC(C)=O)CO[C@@H]1C[C@@H]2O
4. C/C(CC(=O)Nc1ccc([N+](=O)[O-])cc1)=N\Nc1ccc([N+](=O)[O-])cc1[N+](=O)[O-]
5. CCOC(=O)c1sc2nc(SC)nc(Nc3ccc4c(c3)OCCCO4)c2c1N
6. C=C(CO)CC(/C=C(\C)CC/C=C(\C)CCl)OC(C)=O (centres undefined)
7. CCOC(=O)NC(Nc1c(F)c(F)c(F)c(F)c1F)(C(F)(F)F)C(F)(F)F
8. Cc1c(Cl)cccc1NC(=O)C(=O)C1C(=O)CC(C)(C)CC1=O

Out:
1: 86.1 µM (inactive); 2: > 100 µM (inactive); 3: > 25 µM (inactive); 4: > 100 µM (inactive); 5: 10.6 µM (inactive); 6: > 100 µM (inactive); 7: > 100 µM (inactive); 8: > 100 µM (inactive)

Go through the list and state GI50 for each entry.
1. C/C(=N\NC(=S)N1CCC(N2CCCCC2)CC1)c1ccccn1
2. NC(CCCNCc1ccccc1O)C(=O)O (centres undefined)
3. CN(C)CC1CC/C(=C\c2ccc(Cl)c(Cl)c2)C1=O (centres undefined)
4. COc1cc(C2c3[nH]c4ccc(F)cc4c3C[C@H]3COC(=O)N23)cc(OC)c1O (some centres undefined)
5. CC(=O)C1C(c2ccccc2)C2(C)OC(=O)C(C#N)C12C (centres undefined)

Out:
1. 3.4 µM (inactive)
2. > 100 µM (inactive)
3. 39.3 µM (inactive)
4. 24 µM (inactive)
5. > 100 µM (inactive)

====

Test system: SK-OV-3
Assay: NCI tumour cell line growth inhibition, 48 h
The source made the active and inactive calls. Rule as the data show it: active = GI50 up to about 1.1 µM and inactive = higher.
TEST READOUT: GI50

Before answering, review these 4 worked examples.
CC(=O)O[C@H]1CC[C@@]2(C)[C@@H](CC[C@@H]3[C@@H]2CC(=O)[C@@]2(C)[C@H]3C[C@@H]3CC(C)=CC(=O)[C@@H]32)C1 :: > 100 µM (inactive)
O=c1c(C(c2ccc3ccccc3c2)c2c(O)oc3cc(O)ccc3c2=O)c(O)oc2cc(O)ccc12 :: > 100 µM (inactive)
N=c1c2ccccc2nc2oc3cc([N+](=O)[O-])ccc3n12 :: 17.9 µM (inactive)
C=C(CO)CC(/C=C(\C)CC/C=C(\C)CCl)OC(C)=O (stereo not given) :: > 100 µM (inactive)

Go through the list and state GI50 for each entry.
1. CC(=O)OC1C2CCC1C1C2C2(Cl)C(Cl)=C(Cl)C1(Cl)C2(Cl)Cl (stereo not given)
2. O=C(O)CC(Cc1ccc2c(c1)OCO2)C(=O)O (stereo not given)
3. N#[N+]c1cc2c(cc1Br)-c1ccccc1C2
4. CC(C)(C)n1nc(C2CC2)cc1NC(=O)Nc1ccc(Cl)cc1
5. Cc1ccc(/C=C2\NC(=S)NC2=O)cc1

Out:
16 µM (inactive)
> 100 µM (inactive)
> 100 µM (inactive)
> 100 µM (inactive)
> 100 µM (inactive)

Go through the list and state GI50 for each entry.
1. c1ccc2c(Nc3ncco3)cccc2c1
2. CCCCCCNC(=O)CCN(C(=O)O)S(=O)(=O)c1ccc(NC(=O)c2ccccc2)cc1
3. O=c1[nH]nc(Cc2ccccc2)n1/N=C/c1ccccc1Cl
4. COP(C)(=O)C(Cc1c[nH]c2ccccc12)NC(=O)OCc1ccccc1 (stereo not given)
5. CSc1ncc2c(n1)-c1ccccc1OC2N1CCOCC1 (stereo not given)
6. O=C1c2ccccc2S(=O)(=O)c2cc(-c3nn[nH]n3)ccc21
7. O=C1NC2(CCCCCC2)C2CCCCCCC12O (stereo not given)

Out:
1: > 10 µM (inactive); 2: > 100 µM (inactive); 3: > 100 µM (inactive); 4: > 100 µM (inactive); 5: > 100 µM (inactive); 6: > 100 µM (inactive); 7: > 100 µM (inactive)

Go through the list and state GI50 for each entry.
1. CC1=C2CC(C)(C)/C=C\C(=O)/C(C)=C\C3=C[C@H](C)C[C@]3(O2)C1=O
2. CC(C)C(NC(=O)C(Cc1ccccc1)NC(=O)[C@H]1CCC[C@H]1NC(=O)C(Cc1ccc(OC(C)(C)C)cc1)NC(=O)OC(C)(C)C)C(N)=O (stereo not given in full)
3. CN(C)CCCSc1c2ccccc2nc2cc(NCC(=O)Nc3ccccc3-c3ccccc3NC(=O)CNc3ccc4c(SCCCN(C)C)c5ccccc5nc4c3)ccc12
4. O=CC1CCC=CC1NC(=O)OCc1ccccc1 (stereo not given)

Out:
1: 9.51 µM (inactive); 2: 17.9 µM (inactive); 3: > 100 µM (inactive); 4: > 100 µM (inactive)

====

Tested on: SF-295
Test: NCI tumour cell line growth inhibition, 48 h
Calls of active or inactive are those of the source. No stated cut-off is given here; in the data, active = GI50 up to about 1.1 µM and inactive = higher.
Choose the fitting class; nothing outside t for active, f for inactive is accepted.

Some solved entries appear below for comparison.
COC(=O)c1c/c(=N\NC(=O)CC(=O)Nc2ccc(C)cc2)c2ccccc2o1 :: f
CC(C)C(OC(=O)c1cc(NC(=S)c2ccccc2)ccc1Cl)C(C)C :: f
COc1ccc(O)cc1C(O)c1ccccc1 (stereo unspecified) :: f

We next turn to a different molecule, shown below.
In: Hi, do you know how COc1ccc(-c2cc(-c3ccccc3)c(C#N)c(=O)[nH]2)cc1 came out in this test?
Out: f

====

Test system: SNB-19
Assay: NCI tumour cell line growth inhibition, 48 h
Active and inactive are the calls of the source. Rule as the data show it: active = GI50 up to about 1.1 µM and inactive = higher.
TEST READOUT: GI50

Go through the list and state GI50 for each entry.
1. O=C(Nc1ccc(Cl)c(Cl)c1)C(=O)Nn1c(S)nc2ccccc2c1=O
2. O=c1[nH]c(=O)n(C2OC(CO)C(O)C2O)cc1OCc1ccccc1 (centres undefined)
3. COC(=O)C1=C(C)NC(=O)N2[C@@H](CCOCc3ccccc3)CC[C@@H]12
4. Cn1c2c(c3ccccc31)C1CCCCC1C1C(=O)NC(=O)C21 (centres undefined)
5. C/N=C/N(C)c1c2ccccc2nc2ccccc12
6. COC(=O)C12C(=O)O[C@H](C)C1(O)C(C)C(=O)N2C (some centres undefined)

Out:
1. > 100 µM (inactive)
2. > 100 µM (inactive)
3. > 50 µM (inactive)
4. > 100 µM (inactive)
5. > 100 µM (inactive)
6. > 100 µM (inactive)

====

Tested on: RPMI-8226
Test: NCI tumour cell line growth inhibition, 48 h
Active and inactive are the calls of the source. Rule as the data show it: active = GI50 up to about 1.1 µM and inactive = higher.
TEST READOUT: GI50

Before answering, review these 3 worked examples.
C/C(=N\NC(=S)N1CCCCC1)c1nc2cccnc2[nH]1 :: 4.33 µM (inactive)
C[C@@]12CC[C@H]3[C@@H]4CCC(=O)N[C@@]4(C)CC[C@@H]3[C@@]1(C)CC[C@H](OC(=O)Cc1ccc(N(CCCl)CCCl)cc1)C2 :: 18.4 µM (inactive)
CC(C)CN1CN(c2ccccc2)C2(CCN(CC(C)(c3ccc(F)cc3)C3OCCO3)CC2)C1=O (configuration not stated) :: 1.94 µM (inactive)

Go through the list and state GI50 for each entry.
1. CCOc1ccc(NC(=O)C2=C(C)NC(C)=C(C(=O)Nc3ccc(OCC)cc3)C2c2ccc(O)c(OC)c2)cc1
2. O=c1c2cc([N+](=O)[O-])ccc2n2n1CCCC2
3. O=C(NO)c1ccc(OCc2cccc(Cl)c2)cc1

Out:
28.6 µM (inactive)
> 100 µM (inactive)
3.27 µM (inactive)
